Molecular target: HLA-A*02:01
Assay: IEDB peptide-MHC binding, purified MHC/direct/fluorescence; filed as Kd, often an IC50 or EC50 that approximates it; bounds were set here for any values at or beyond the usual limits of such assays
Conditions: source organism: Influenza A virus (A/chicken/Hunan/fg/2004(H5N1))
ENDPOINT: Kd

IN: Identify measured Kd corresponding to "YSHGTGTGY"
OUT: ≥ 20 µM

----------
Target: HLA-B*18:01
Assay: IEDB peptide-MHC binding, purified MHC/competitive/radioactivity; filed as Kd, often an IC50 or EC50 that approximates it; bounds were set here for any values at or beyond the usual limits of such assays
Details: source organism: SARS coronavirus Tor2
ENDPOINT: pKd
In plain terms, pKd is the concentration in mol/L turned into minus its base-10 logarithm.

IN: Identify measured pKd corresponding to "SEQSLRLVDA"
OUT: 5.44

IN: Identify measured pKd corresponding to "VETVSLAGSY"
OUT: 5.77

IN: Identify measured pKd corresponding to "AEYKLQQGTF"
OUT: 5.15

IN: Identify measured pKd corresponding to "AEWVLAYML"
OUT: 6.38
